# Decrease of F-FKBP binding per record follows
target: RyR1 (Sus scrofa); assay: F-FKBP binding to RyR1 by co-sedimentation with skeletal SR membranes; design: using co-sedimentation with pig skeletal and cardiac SR membranes; from tissue; host or cells: pig skeletal muscle (heavy SR membranes); species or system pig; settings: RyR1, 10 μM Hit, 30 nM Ca2+, 5 mM GSSG or GSH
Sequence (P16960 whole entry): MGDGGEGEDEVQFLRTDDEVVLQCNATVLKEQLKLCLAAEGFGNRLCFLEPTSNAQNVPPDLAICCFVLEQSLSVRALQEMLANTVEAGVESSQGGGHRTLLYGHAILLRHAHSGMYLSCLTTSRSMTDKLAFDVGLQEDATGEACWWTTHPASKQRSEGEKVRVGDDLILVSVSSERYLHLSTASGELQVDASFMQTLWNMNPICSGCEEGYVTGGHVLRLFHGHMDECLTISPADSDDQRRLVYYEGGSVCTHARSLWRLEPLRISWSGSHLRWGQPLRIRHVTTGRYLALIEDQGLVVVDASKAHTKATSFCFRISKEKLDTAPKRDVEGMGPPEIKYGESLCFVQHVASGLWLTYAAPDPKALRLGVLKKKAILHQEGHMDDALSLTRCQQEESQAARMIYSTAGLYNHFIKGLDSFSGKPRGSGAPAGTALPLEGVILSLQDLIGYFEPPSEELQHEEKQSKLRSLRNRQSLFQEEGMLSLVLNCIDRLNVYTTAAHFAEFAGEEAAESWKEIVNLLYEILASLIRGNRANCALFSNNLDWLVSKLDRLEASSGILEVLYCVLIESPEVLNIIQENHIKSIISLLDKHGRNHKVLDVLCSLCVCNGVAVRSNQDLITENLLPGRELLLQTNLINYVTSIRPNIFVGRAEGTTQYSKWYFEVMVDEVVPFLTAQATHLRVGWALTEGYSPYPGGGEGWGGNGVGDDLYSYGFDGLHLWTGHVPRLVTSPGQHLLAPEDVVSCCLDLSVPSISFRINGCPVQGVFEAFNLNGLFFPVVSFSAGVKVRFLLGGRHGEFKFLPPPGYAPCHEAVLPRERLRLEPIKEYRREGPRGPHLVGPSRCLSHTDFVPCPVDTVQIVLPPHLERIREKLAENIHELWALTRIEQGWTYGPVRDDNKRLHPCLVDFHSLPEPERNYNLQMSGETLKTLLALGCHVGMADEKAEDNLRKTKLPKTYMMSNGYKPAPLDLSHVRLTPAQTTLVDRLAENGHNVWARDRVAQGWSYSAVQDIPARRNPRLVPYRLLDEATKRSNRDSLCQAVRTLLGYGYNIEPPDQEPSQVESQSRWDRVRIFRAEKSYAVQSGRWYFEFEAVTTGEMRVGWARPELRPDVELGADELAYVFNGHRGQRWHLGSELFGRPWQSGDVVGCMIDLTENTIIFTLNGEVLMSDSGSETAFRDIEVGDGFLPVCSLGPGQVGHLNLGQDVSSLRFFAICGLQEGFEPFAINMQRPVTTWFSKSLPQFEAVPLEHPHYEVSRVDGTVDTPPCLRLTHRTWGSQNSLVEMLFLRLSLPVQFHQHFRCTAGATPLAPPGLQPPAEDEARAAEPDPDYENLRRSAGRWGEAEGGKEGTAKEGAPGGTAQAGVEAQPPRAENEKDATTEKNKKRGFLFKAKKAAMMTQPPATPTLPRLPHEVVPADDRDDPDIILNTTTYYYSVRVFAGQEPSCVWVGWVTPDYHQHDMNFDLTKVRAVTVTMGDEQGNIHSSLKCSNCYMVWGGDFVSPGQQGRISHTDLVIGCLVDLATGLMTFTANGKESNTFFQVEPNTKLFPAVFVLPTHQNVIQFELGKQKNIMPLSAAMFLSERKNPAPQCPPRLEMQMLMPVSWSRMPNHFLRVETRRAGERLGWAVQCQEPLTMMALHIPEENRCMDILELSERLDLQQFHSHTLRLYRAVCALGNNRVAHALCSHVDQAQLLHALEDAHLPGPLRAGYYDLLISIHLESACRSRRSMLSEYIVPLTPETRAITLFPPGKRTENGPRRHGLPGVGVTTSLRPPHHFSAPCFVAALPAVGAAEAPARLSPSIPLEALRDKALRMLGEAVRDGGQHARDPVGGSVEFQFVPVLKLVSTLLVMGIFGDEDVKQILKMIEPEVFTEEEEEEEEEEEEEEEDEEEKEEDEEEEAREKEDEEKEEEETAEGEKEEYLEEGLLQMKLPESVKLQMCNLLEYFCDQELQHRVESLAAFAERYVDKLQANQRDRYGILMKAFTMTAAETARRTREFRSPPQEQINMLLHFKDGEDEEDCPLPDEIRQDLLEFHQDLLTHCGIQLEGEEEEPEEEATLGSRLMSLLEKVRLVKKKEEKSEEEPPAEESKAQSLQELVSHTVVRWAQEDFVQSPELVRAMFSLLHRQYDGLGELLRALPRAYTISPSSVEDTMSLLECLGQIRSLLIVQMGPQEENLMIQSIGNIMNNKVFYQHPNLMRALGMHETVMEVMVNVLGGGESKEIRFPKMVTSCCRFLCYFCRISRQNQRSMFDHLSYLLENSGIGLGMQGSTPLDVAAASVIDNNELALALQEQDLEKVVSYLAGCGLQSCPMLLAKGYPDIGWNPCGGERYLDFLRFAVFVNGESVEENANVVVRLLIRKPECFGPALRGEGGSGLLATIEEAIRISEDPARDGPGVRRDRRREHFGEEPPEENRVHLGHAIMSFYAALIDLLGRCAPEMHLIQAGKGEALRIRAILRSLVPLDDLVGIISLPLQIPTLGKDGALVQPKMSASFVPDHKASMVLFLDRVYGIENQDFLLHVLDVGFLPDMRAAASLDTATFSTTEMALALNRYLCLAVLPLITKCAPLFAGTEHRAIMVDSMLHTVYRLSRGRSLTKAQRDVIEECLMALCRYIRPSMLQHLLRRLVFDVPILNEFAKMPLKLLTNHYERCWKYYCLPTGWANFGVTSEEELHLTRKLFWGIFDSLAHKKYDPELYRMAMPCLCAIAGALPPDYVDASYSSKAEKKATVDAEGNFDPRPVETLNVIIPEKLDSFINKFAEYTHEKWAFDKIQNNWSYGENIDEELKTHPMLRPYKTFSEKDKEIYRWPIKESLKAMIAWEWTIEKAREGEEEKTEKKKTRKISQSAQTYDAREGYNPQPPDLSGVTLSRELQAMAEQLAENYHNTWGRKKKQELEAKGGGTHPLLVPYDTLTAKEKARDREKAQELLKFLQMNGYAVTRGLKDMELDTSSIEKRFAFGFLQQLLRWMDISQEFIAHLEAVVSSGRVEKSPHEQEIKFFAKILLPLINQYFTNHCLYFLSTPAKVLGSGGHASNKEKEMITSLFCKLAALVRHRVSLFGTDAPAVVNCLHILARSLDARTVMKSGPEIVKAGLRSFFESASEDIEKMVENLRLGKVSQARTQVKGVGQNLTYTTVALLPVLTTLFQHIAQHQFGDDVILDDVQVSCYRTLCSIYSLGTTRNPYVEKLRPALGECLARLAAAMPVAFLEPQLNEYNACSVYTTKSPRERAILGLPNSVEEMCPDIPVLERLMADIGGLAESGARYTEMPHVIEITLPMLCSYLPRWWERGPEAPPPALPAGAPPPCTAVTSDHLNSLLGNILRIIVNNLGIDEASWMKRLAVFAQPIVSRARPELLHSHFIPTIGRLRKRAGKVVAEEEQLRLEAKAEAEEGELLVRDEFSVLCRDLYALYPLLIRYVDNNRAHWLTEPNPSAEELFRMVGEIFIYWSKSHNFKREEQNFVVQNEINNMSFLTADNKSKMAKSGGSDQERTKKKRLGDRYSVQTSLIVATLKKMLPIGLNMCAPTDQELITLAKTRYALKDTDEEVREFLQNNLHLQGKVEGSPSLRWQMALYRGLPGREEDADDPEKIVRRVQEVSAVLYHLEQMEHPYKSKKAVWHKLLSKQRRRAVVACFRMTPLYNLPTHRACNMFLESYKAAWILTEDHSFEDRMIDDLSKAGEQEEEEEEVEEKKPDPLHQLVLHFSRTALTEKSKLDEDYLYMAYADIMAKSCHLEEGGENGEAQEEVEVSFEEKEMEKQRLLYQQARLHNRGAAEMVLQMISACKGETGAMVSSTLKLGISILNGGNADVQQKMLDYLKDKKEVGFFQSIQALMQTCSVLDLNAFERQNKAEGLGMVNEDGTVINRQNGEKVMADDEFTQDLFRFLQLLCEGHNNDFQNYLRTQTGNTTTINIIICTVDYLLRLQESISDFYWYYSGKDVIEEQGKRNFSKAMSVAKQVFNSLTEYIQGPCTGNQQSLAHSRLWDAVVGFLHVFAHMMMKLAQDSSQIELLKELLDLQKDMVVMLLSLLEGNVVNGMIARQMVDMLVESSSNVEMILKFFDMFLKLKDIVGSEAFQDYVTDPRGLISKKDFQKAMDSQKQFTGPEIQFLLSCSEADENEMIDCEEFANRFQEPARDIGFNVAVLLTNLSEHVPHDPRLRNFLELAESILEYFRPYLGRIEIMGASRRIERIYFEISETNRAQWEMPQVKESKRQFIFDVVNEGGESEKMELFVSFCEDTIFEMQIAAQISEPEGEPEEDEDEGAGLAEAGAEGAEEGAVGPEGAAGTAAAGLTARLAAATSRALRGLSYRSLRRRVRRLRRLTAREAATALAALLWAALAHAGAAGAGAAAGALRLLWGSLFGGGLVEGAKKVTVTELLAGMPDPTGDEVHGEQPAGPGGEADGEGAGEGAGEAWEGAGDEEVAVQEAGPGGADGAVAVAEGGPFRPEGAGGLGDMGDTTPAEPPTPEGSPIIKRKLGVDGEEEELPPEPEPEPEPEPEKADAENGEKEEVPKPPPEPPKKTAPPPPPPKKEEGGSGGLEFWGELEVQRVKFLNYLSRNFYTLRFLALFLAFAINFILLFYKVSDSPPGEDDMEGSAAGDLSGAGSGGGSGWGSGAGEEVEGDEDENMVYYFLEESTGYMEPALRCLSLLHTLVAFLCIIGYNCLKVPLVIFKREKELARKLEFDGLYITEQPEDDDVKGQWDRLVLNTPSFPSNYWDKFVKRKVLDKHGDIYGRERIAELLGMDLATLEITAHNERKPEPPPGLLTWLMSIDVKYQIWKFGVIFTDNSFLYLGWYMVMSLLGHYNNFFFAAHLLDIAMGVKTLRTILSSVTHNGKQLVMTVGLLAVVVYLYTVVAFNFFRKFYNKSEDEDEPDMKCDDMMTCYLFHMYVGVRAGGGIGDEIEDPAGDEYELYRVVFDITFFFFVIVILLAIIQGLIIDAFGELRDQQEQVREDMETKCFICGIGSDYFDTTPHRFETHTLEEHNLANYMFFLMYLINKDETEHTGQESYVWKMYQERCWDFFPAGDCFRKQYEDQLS
Numeric only. Scale: %

smiles notation	measured on	metric	unit of measurement	result number
C=CC[C@@H]1/C=C(\C)C[C@H](C)C[C@H](OC)[C@H]2O[C@@](O)(C(=O)C(=O)N3CCCC[C@H]3C(=O)O[C@H](/C(C)=C/[C@@H]3CC[C@@H](O)[C@H](OC)C3)[C@H](C)[C@@H](O)CC1=O)[C@H](C)C[C@@H]2OC	RyR1 (Sus scrofa)	Decrease of F-FKBP binding	%	20

Field: next compound
Lookup: Recorded Decrease of F-FKBP binding for "CO[C@H]1C[C@@H]2CC[C@@H](C)[C@@](O)(O2)C(=O)C(=O)N2CCCC[C@H]2C(=O)O[C@H]([C@H](C)C[C@@H]2CC[C@@H](OC(=O)C(C)(CO)CO)[C@H](OC)C2)CC(=O)[C@H](C)/C=C(\C)[C@@H](O)[C@@H](OC)C(=O)[C@H](C)C[C@H](C)/C=C/C=C/C=C/1C" , please?
Found: 20
